Tested Target: OsWRKY34 (Oryza sativa, UniProt Q0JBA9 1-250)
Sequence (Q0JBA9 entry or part of it): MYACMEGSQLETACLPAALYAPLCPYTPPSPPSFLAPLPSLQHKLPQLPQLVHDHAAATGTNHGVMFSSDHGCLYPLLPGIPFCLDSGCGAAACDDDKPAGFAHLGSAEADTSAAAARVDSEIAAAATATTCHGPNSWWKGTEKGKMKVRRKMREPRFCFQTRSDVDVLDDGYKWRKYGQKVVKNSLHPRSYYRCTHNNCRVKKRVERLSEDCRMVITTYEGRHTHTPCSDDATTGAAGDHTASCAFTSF
Assay Name: protein-binding microarray (RPBM); PBS, 2% BSA, 51.3 ng/ul salmon testes DNA, 50 uM zinc acetate, 200 nM TF, 25 C, 1 h; high values mean tight binding
Measurement Setup: protein: recombinant; tags: N-terminal polyhistidine and DsRed monomer fusion (pET32a); label: CyDye5-dUTP incorporated in the synthesized complementary strand; 3' TTTTT single-stranded linker to array surface; dsDNA, one strand shown
In all, about 68,000 sequences were measured (“fluorescence intensity (a.u.)”: median about 9,100, highest 2% from about 16,000 on). The entries come from a sample that favours the highest values as a whole.
Reported Endpoint: binding signal

Solved cases (4 shown):
{"Monomer Sequence": "CAACATCTTCTTTAGTTGCTCACACTTTTTCTTAGAATCACGGAGTCACCTAGTGCAG", "binding signal": "8340 fluorescence intensity (a.u.)"}
{"Monomer Sequence": "TTAAACGGTCATTCTTGTGTTTTTCCTGTATTTTCTAATCCGGAGTCACCTAGTGCAG", "binding signal": "9220 fluorescence intensity (a.u.)"}
{"Monomer Sequence": "CTCCTGCTTCTCTGTTCTTTCCATTCTCCTCCTTTTTTTCCGGAGTCACCTAGTGCAG", "binding signal": "14600 fluorescence intensity (a.u.)"}
{"Monomer Sequence": "TTTTCTTCTTTCTTTCTCTCTGTCTTGTTCAATTTTTTCTCGGAGTCACCTAGTGCAG", "binding signal": "11800 fluorescence intensity (a.u.)"}

Now, please, on to the next sequence.
In one line, give reported binding signal of the entry TCATTTGTCATCCATAAGTTTATATTTTGTACTTTTAGTTCGGAGTCACCTAGTGCAG .
8550 fluorescence intensity (a.u.)
